- TEST_TARGET: p53pΔF19
- EXPERIMENTAL_DETAILS: ITC
QUANTITY_KIND: pKd
// scale note: pKd = -log10(conc_M); give the bare number

Requested read-out: pKd. Entry: p53-binding domain of human MdmX (N-MdmX, amino acids 22-110) (domain or fragment) GQINQVRPKLPLLKILHAAGAQGEMFTVKEVMHYLGQYIMVKQLYDQQEQHMVYCGGDLLGELLGRQSFSVKDPSPLYDMLRKNLVTLA
4.70
